- TEST: Toxic level was evaluated
- Assay type: ADME
MEASUREMENT_TYPE: Toxic level (mM)

COMPOUND | COMPARISON_OPERATOR | ASSAY_RESULT
CSc1nc(N)c2cc(Cl)n([C@H]3C[C@H](O)[C@@H](CO)O3)c2n1 | = | 0.5
Nc1nc(Cl)nc2c1ccn2[C@H]1C[C@H](O)[C@@H](CO)O1 | = | 0.5
CSc1ncc2cc(C)n([C@H]3C[C@H](O)[C@@H](CO)O3)c2n1 | > | 5
Cc1cc2c(N)ncnc2n1[C@H]1C[C@H](O)[C@@H](CO)O1 | = | 5
Cc1cc2cncnc2n1[C@H]1C[C@H](O)[C@@H](CO)O1 | = | 5
Nc1nc(Cl)nc2c1ncn2[C@H]1C[C@H](O)[C@@H](CO)O1 [CLADRIBINE] | = | 0.005
OC[C@H]1O[C@@H](n2ccc3c(S)ncnc32)C[C@@H]1O | = | 5
Cc1nc(N)c2cc(Cl)n([C@H]3C[C@H](O)[C@@H](CO)O3)c2n1 | = | 0.5
Nc1ncnc2c1cc(Cl)n2[C@H]1C[C@H](O)[C@@H](CO)O1 | = | 1.6

----------
- Tested on: Human respirovirus 3
- TEST: In vitro antiviral activity was tested against, parainfluenza type 3 (Para 3) virus
- CONDITION_LABEL: read-out: ED50 (the source's name)
pEC50: −log10 of the molar value.

SMILES_RECORD | pEC50
Cc1cc2cncnc2n1[C@H]1C[C@H](O)[C@@H](CO)O1 | 2.96

----------
- Tested on: Human respirovirus 3
- TEST: In vitro antiviral activity was tested against, parainfluenza type 3 (Para 3) virus
- Type: functional
- CONDITION_LABEL: read-out: ED50 (the source's name)

SMILES_RECORD | EXPERIMENTAL_SYSTEM | COMPARISON_OPERATOR | EC50 (µM)
Cc1cc2c(N)ncnc2n1[C@H]1C[C@H](O)[C@@H](CO)O1 | Human respirovirus 3 | = | 500
NC(=O)c1ncn([C@@H]2O[C@H](CO)[C@@H](O)[C@H]2O)n1 | Human respirovirus 3 | = | 160
Nc1nc(Cl)nc2c1ccn2[C@H]1C[C@H](O)[C@@H](CO)O1 | Human respirovirus 3 | > | 5000
OC[C@H]1O[C@@H](n2ccc3c(Cl)ncnc32)C[C@@H]1O | Human respirovirus 3 | = | 960
